# Tested on: NOMO1
# assay_summary: cell viability relative to DMSO control; higher = less cytotoxic
# condition_context: HPLM + 10% dialyzed FBS; 48 h; 0.19 µM
reported_property: cell viability (%)
Kindly answer with a numeric value in %, unit omitted.

Fill in cell viability for record `CCOC(=O)c1ccc(OC(=O)CCCCCNC(=N)N)cc1` 128

Dear colleague, please send me the reported cell viability for `CN1CCN(C2=Nc3cc(Cl)ccc3Nc3ccccc32)CC1` when you can. 119

Specify cell viability for `CNC(=O)c1ccc(N2C(=S)N(c3cnc(C#N)c(C(F)(F)F)c3)C(=O)C23CCC3)cc1F` and stop. 116

---

# Test system: NOMO1
# assay_summary: cell viability relative to DMSO control; higher = less cytotoxic
# condition_context: HPLM + 10% dialyzed FBS; 48 h; 5.12 µM
reported_property: cell viability

molecule=CC(=O)O[C@@]1(CC[C@H]2[C@@H]3\C=C(Cl)/C4=C/C(=O)[C@@H]5C[C@@H]5[C@]4(C)[C@H]3CC[C@]12C)C(C)=O reported_property="cell viability" result=36%
molecule=N#CCNC(=O)c1ccc(-c2ccnc(Nc3ccc(N4CCOCC4)cc3)n2)cc1 reported_property="cell viability" result=124%
molecule="CC1CNc2c(cccc2[S+](=O)([O-])N[C@@H](CCCNC(=N)N)C(=O)N2CC[C@@H](C)C[C@@H]2C(=O)O)C1 (stereo not given in full)" reported_property="cell viability" result=101%
molecule="COc1ccccc1OCC(O)COC(N)=O (stereo not given)" reported_property="cell viability" result=130%

Next up:
Give the measured cell viability for CNC(=O)c1ccc2cc(C3(O)CCn4cncc43)ccc2c1 (stereo not given) 113%

---

# System: P12-Ichikawa
# assay_summary: AUC of viability dose-response curve (% viability x log10 dose units); higher = less sensitive
# condition_context: RPMI 5 mM glucose + 10% dialyzed FBS; 48 h
reported_property: AUC of viability dose-response curve
Could you respond with only the numeric value?

# count of solved cases: 3
compound=COc1ccc([C@@H]2CC(=O)c3c(O)cc(O[C@@H]4O[C@H](CO[C@@H]5O[C@@H](C)[C@H](O)[C@@H](O)[C@H]5O)[C@@H](O)[C@H](O)[C@H]4O)cc3O2)cc1O numeric_value=473
compound=O=C1[C@H](Cc2ccc(O)cc2)N2C(=O)CCN(C(=O)NCc3ccccc3)[C@H]2CN1Cc1cccc2ccccc12 numeric_value=361
compound="CNC(=O)c1ccc2cc(C3(O)CCn4cncc43)ccc2c1 (centres undefined)" numeric_value=453

Supply AUC of viability dose-response curve value. Item: `N[S+]([O-])(=O)C1=C(Cl)C=C2\N=C/N[S+]([O-])(=O)C2=C1` 468

---

# Test system: P12-Ichikawa
# assay_summary: cell viability relative to DMSO control; higher = less cytotoxic
# condition_context: HPLM + 10% dialyzed FBS; 48 h; 0.19 µM
The reader will find reported cell viability values listed item by item below.
Only the number, expressed in %, is required.

compound=CCOC(=O)c1ccc(OC(=O)CCCCCNC(=N)N)cc1 numeric_value=126
compound=CN1CCN(C2=Nc3cc(Cl)ccc3Nc3ccccc32)CC1 numeric_value=115
compound=O=C(Nc1cccc(C(F)(F)F)c1)Nc1cc([S+](=O)([O-])NC2CC2)ccc1-c1ccsc1 numeric_value=114
compound=C[C@](O)(CS(=O)(=O)c1ccc(F)cc1)C(=O)Nc1ccc(C#N)c(C(F)(F)F)c1 numeric_value=115

# return recorded cell viability for entry `COc1ccc(-c2ccc3ncc4c(c3c2)n(-c2ccc(N3CCNCC3)c(C(F)(F)F)c2)c(=O)n4C)cn1` 48.5

Hello, the source for this data is the supplement of paper PMC11451515, in case you need it.
